Where do these numbers come from? They come from patent US20170168056A1.

Tested on: T47D cells
Method summary: Wound closure assay and morphology (circularity), T47D cells with Mena^11a-specific shRNA
Format: cell-based, human
Test context: perfect circularity=1
Assay readout: circularity of cells at the free edge of the monolayer
Reply with the value as a number alone.

| Molecule | Experimental value |
| --- | --- |
| sh-2: shRNA targeting the 11a insertion of Mena^11a, SEQ ID NO. 8 (nucleic acid) guide: TGCTGTTGACAGTGAGCGCAACAGGTCCTATGATTCATTATAGTGAAGCCACAGATGTATAATGAATCATAGGACCTGTTATGCCTACTGCCTCGGA | 0.509 |

## Input Let me know recorded circularity of cells at the free edge of the monolayer for sh-1C: paired control shRNA for sh-1, SEQ ID NO. 7 (nucleic acid) guide: TGCTGTTGACAGTGAGCGAATGATTCCTTAAACAGCCCAATAGTGAAGCCACAGATGTATTGGGCTGTTTAAGGAATCATGTGCCTACTGCCTCGGA , thanks.
## Output 0.683

## Input Answer with the recorded circularity of cells at the free edge of the monolayer for the molecule listed here: sh-1: shRNA targeting the 11a insertion of Mena^11a, SEQ ID NO. 6 (nucleic acid) guide: TGCTGTTGACAGTGAGCGCATGATTCATTACACAGACCAATAGTGAAGCCACAGATGTATTGGTCTGTGTAATGAATCATATGCCTACTGCCTCGGA
## Output 0.614

## Input Please indicate circularity of cells at the free edge of the monolayer recorded for sh-2C: paired control shRNA for sh-2, SEQ ID NO. 9 (nucleic acid) guide: TGCTGTTGACAGTGAGCGAAACAGGTCATAGGATTAATTATAGTGAAGCCACAGATGTATAATTAATCCTATGACCTGTTCTGCCTACTGCCTCGGA
## Output 0.640
